# Test system: MCF7
# experimentSummary: Cytotoxicity against human MCF7 cells assessed as cell growth inhibition measured after 96 hrs by MTT assay
# Type: functional, cell-based
# conditionNotes: MCF7, 96 h
resultType: pIC50
One number for each entry, as −log10 of the molar value.

Q: Write down the reported pIC50 of CC(C)=CC[C@H]1C(=O)C2=C(CO[C@@H]2CCO)[C@@H](O)[C@H]1O , test system: MCF7.
Result: 5.38

----------
# experimentSummary: Inhibition of rat intestinal maltase
resultType: IC50 (µM)
Numbers only, in µM.

Q: Given the entry C/C(=C\CC/C(=C/Cc1cc(O)ccc1O)C(=O)O)CC[C@@H](O)C(C)(C)O , report its measured IC50.
Result: 11.1

Values compiled from ChEMBL document CHEMBL5113368.
